- Read-out: Plasminogen activator inhibitor-1 (PAI1), SERPINE1 (gene 5054)
- assay.protocol: BSK_hDFCGF_PAI1: BioMAP Diversity Plus: hDFCGF Assay for Plasminogen activator inhibitor-1 (PAI1) Biomarker Activity (AID 2283066)
- measurement.parameters: primary human foreskin fibroblasts; actives raise or lower the signal
Active and inactive are the calls of the source. How the source made its calls: active means hit-call score of the fitted dose curve at least 0.9, where 1 is the maximum; inactive means score below 0.9.
In this exercise, the only acceptable responses are active, inactive

# count of solved cases: 8
CCOC(=O)C(SP(=S)(OC)OC)c1ccccc1 (stereo not drawn) : inactive
CC(C)(COCC1CO1)COCC1CO1 (stereo not drawn) : inactive
Oc1c(Br)cc(Br)cc1Br : active
Cc1ccc2nc3sc(=O)sc3nc2c1 : inactive
OCCCCO : inactive
CC1(C)[C@H](C(=O)O[C@H](C#N)c2cccc(Oc3ccccc3)c2)[C@@H]1/C=C(\Cl)C(F)(F)F : inactive
CCOP(=S)(OCC)SCS(=O)(=O)C(C)(C)C : inactive
CCN(CC)C(=O)C(Cl)=C(C)OP(=O)(OC)OC : inactive

*Q* Could you kindly confirm the outcome this assay logged for CCCCN(CCCC)C(=S)[S-].CCCCN(CCCC)C(=S)[S-].[Ni+2] ?
*A* inactive

*Q* Each molecule tested received a call. Report the one for O=[N+]([O-])c1cccc2ccccc12 .
*A* inactive

*Q* Returns: the outcome recorded for CCC(C)(C#N)N=NC(C)(C#N)CC (stereo not drawn) in this assay.
*A* active

*Q* So what was the verdict on CC(C)O.CC(C)O.OCCN(CCO)CCO.OCCN(CCO)CCO.[Ti] in this test?
*A* inactive

*Q* How was CCOP(=S)(OCC)OP(=S)(OCC)OCC classified in this test?
*A* inactive
